Can you tell me EC50 for the items I'm about to list?
Biological target: T1, human AGR2 WT (human, UniProt O95994 21-175)
T1 construct: also called hAGR2; recombinant human AGR2
T1 sequence: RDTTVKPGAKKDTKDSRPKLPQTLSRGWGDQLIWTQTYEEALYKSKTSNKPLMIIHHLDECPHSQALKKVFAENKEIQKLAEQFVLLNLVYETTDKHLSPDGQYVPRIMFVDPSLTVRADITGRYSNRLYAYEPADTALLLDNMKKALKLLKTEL
Assay: ELISA, antigen coated at 1 µg/mL, antibody titrated
Give a bare numeral; the unit pM is implied.

For the binder shown here, TH-109 IgG1-LALA humanized monoclonal antibody (antibody, V domains shown) VH: QVQLVQSGSELKKPGASVKVSCKTSGYVFSRSWMNWVRQAPGQGLEWIGWIYPGDGDTNYNGKFKDRFVLSADKSVSTVYLQISSLKAEDTAVYFCARGGYDGSPWLSYWGQGTLVTVSS VL: EIVLTQSPATLSLSPGERATLSCKASQDINSYLSWFQQKPGQAPRTLIYRANRLVDGIPARFSGSGSGQDFTLTISSLEPEDFAVYYCLQYDEFPFTFGGGTKVEIKR , give the reported EC50.
2370

Subsequent entry: TH-101 IgG1-LALA humanized monoclonal antibody (antibody, V domains shown) VH: QVQLVQSGAEVKKPGASVKVSCKTSGYVFSRSWMNWVRQAPGQGLEWIGWIYPGDGDTNYNGKFKDRVTLTADKSTSTVYMELSSLRSEDTAVYFCARGGYDGSPWLSYWGQGTLVTVSS VL: DIQMTQSPSSLSASVGDRVTITCKASQDINSYLSWFQQKPGKAPKTLIYRANRLVDGVPSRFSGSGSGQDFTLTISSLQPEDIATYYCLQYDEFPFTFGGGTKVEIKR
520

Subsequent entry: TH-104 IgG1-LALA humanized monoclonal antibody (antibody, V domains shown) VH: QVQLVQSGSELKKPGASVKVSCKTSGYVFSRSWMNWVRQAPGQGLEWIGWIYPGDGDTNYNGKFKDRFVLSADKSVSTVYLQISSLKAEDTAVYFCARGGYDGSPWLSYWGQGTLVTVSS VL: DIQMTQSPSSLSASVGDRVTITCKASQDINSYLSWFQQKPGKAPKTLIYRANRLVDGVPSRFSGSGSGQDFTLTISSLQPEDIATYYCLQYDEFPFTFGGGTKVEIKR
527

Subsequent entry: TH-115 IgG1-LALA humanized monoclonal antibody (antibody, V domains shown) VH: QVQLLESGGGLVKPGGSLRLSCATSGYVFSRSWMNWIRQAPGQGLEWIGWIYPGDGDTNYNGKVKDRFTLSADKAKNSVYLQMNSLRAEDTAVYFCARGGYDGSPWLSYWGQGTLVTVSS VL: EIVLTQSPDFQSVTPKEKVTITCKASQDINSYLSWFQQKPDQSPKTLIYRANRLVDGVPSRFSGSGSGQDFTLTINSLEAEDAATYYCLQYDEFPFTFGGGTKVEIKR
813
